Where do the numbers come from? From PubChem BioAssay (NCI).

# System: UACC-62 melanoma
# assayDetails: NCI-60 one-dose screen, 48 h (100 = growth as untreated, 0 = no growth, -100 = all killed)
# conditionDescription: 10 µM unless noted
The panel holds about 83,000 compounds, 20% with a hit somewhere; the sample as a whole holds those more often.
Give Satisfied when the value for growth is at least 20%. Give Not satisfied when it is less.

// known answers, use as guide
molecule="Cc1ccc2sc3c(c2c1)OC(N)=C(C#N)C3c1cccc(F)c1 (stereo not given)" category="Not satisfied"
molecule=CCCCNNC(=O)c1ccc(-c2cccc(F)c2F)cc1 category="Not satisfied"

Does growth meet or surpass 20% for N#Cc1cccc(CN2CCC3=C(C2)C(=O)N(Cc2ccc(Cl)cc2)C2=NCCCN23)c1 ?
Satisfied

Determine whether measured growth meets or exceeds 20% for COc1ccc2c(c1)c(CC(=O)[Se]CC(=O)O)c(C)n2C(=O)c1ccc(Cl)cc1
Satisfied

hey, is growth for this one >= 20%? CS(=O)(=O)Nc1cc(-c2ccc3ncc(C#N)c(NCc4ccccc4O)c3c2)cnc1Cl
Not satisfied

====

# System: SF-539 CNS
# assayDetails: NCI-60 one-dose screen, 48 h
# conditionDescription: 10 µM unless noted
About 83,000 compounds went through this panel and 20% of them were active in at least one assay; those are over-represented in the sample as a whole. The source made the active and inactive calls. How the source made its calls: active means growth percent below 10; inactive means the rest.
Pick from 1 (active), -1 (inactive) when you respond.

compound=CCCCc1nc(/C=N/Nc2nc(Nc3ccccc3)nc(Nc3ccc(S(N)(=O)=O)cc3)n2)c(Cl)[nH]1 category=-1
compound=COc1ccc2[nH]cc(-c3csc4nc(-c5ccccc5)cn34)c2c1 category=1
compound="CNC1CCc2c(sc(NC(=O)c3ccc(C(C)(C)C)cc3)c2C(N)=O)C1 (configuration not stated)" category=-1
compound="Nc1nc(N)c2c(n1)NC(c1ccc(Cl)cc1)CC(c1ccc(Nc3nc(NCCO)nc(N4CCOCC4)n3)cc1)=N2 (configuration not stated)" category=-1
compound=CCOC(=O)c1c(NC(=O)c2ccccc2C(F)(F)F)sc2c1CCC(=O)C2 category=1
compound=COc1cc(OC)c(S(N)(=O)=O)cc1C(=O)/C=C/c1ccc(C)cc1 category=1
compound=NS(=O)(=O)c1ccc(Nc2nc(N/N=C/c3ccc(Cl)cc3)nc(Nc3ccccc3)n2)cc1 category=-1
compound=COc1ccc(NC(=O)Nc2ccc3c(ccn3C(=O)c3cccc(F)c3)c2)cc1 category=-1

Please let me know the test result on file for C=C(C)[C@@H]1CC[C@]2(COCCCNCCC#N)CC[C@]3(C)[C@H](CC[C@@H]4[C@@]5(C)CC[C@H](OCCCNCCC#N)C(C)(C)[C@@H]5CC[C@]43C)[C@@H]12 .
-1

Assay result, entry N#Cc1c(-c2cccs2)cc(-c2cnccn2)nc1SCC(=O)c1ccc(F)cc1 — outcome?
-1

====

So I've got a bunch of molecules here, and I need their growth values.
# System: BT-549 breast
# assayDetails: NCI-60 one-dose screen, 48 h (100 = growth as untreated, 0 = no growth, -100 = all killed)
# conditionDescription: 10 µM unless noted
About 83,000 compounds went through this panel and 20% of them were active in at least one assay; those are over-represented in the sample as a whole.
Answers are plain numbers, in %.

Guide cases for growth, answers given:
molecule="CCO/C=N/C1=C(C#N)C(c2ccc(OC)cc2)c2sc3c(CC)cccc3c2O1 (stereo not drawn)" subjectoftest="BT-549 breast" observedproperty=growth unitdescriptor=% numericvalue=63
molecule=Cc1ccc(-n2c(/C=C3\C(=O)Nc4ccccc43)ccc2CO)cc1 subjectoftest="BT-549 breast" observedproperty=growth unitdescriptor=% numericvalue=66.6

Now turn to the next molecule.
Give its growth value. Item: O=C(CN1CCN(c2cc(=O)n(-c3ccccc3)c3ccccc23)CC1)Nc1cccc(C(F)(F)F)c1
66.6
